- Tested on: FLT3 (human), P36888 [D835H]
- RUN_DESCRIPTION: KINOMEscan competition binding
- APPLIED_CONDITIONS: compound 10.0 µM
ASSAY_METRIC: kinase still bound, per cent of control
Provide the measurement as a number trailed by its unit.

Worked examples follow.
COMPOUND	kinase still bound, per cent of control
COc1cc(N2CCC(O)CC2)ccc1Nc1ncc2c(n1)N1CCc3cccc(c31)C(=O)N2C	73%
O=C1NC(=S)S/C1=C\c1ccc(-c2cncc3ccccc23)o1	7.4%
CN1CCN(c2ccc(C(=O)Nc3ncc4c(n3)N(C)c3ccccc3C(=O)N4C)cc2)CC1	100%
CN1C(=O)c2ccccc2N(C)c2nc(Nc3ccc(N4CCC(O)CC4)cc3)ncc21	28%
CS(=O)(=O)Nc1ccc(-c2ncc(/C=C3\SC(=N)NC3=O)s2)cc1	23%
N=C1NC(=O)/C(=C/c2ccc(-c3cncc4ccccc34)o2)S1	3.3%
O=C1NC(=O)/C(=C/c2c[nH]c(=O)c(-c3ccc(N4CCNCC4)nc3)c2)S1	71%
COc1cc(N2CCN(C)CC2)ccc1Nc1ncc2c(n1)Nc1ccccc1NC2=O	20%
CS(=O)(=O)Nc1ccc(-c2cncc(/C=C3\SC(=N)NC3=O)c2)cc1	8.7%
O=C1NC(=S)S/C1=C\c1ccc(-c2cccc3ccccc23)o1	34%

Now for the compound whose kinase still bound, per cent of control we want.
Consider the compound shown here: `COc1cc(N2CCN(C)CC2)ccc1Nc1ncc2c(n1)N(C)c1sccc1C(=O)N2C` What is its recorded kinase still bound, per cent of control?
80%

----------
- TEST_TARGET: CLK1 (human)
- RUN_DESCRIPTION: KINOMEscan competition binding
- APPLIED_CONDITIONS: compound 10.0 µM
Reported values of kinase still bound, per cent of control for individual entries
Kindly provide the numeric value in % only, without the unit symbol.

Consider the molecule shown here: `N=C1NC(=O)/C(=C/c2c[nH]c(=O)c(-c3ccc(N4CCNCC4)nc3)c2)S1` What is its recorded kinase still bound, per cent of control?
3.5

Consider the molecule shown here: `N=C1NC(=O)/C(=C/c2ccc(-c3ccccc3O)o2)S1` What is its recorded kinase still bound, per cent of control?
3.4

Consider the molecule shown here: `COc1cc(C(=O)NC2CCN(C)CC2)ccc1Nc1ncc2c(n1)N(C1CCCC1)CCC(=O)N2C` What is its recorded kinase still bound, per cent of control?
27

Consider the molecule shown here: `CC(=O)Nc1ccc(-c2ccc(/C=C3\SC(=N)NC3=O)o2)c(O)c1` What is its recorded kinase still bound, per cent of control?
16

----------
- TEST_TARGET: STK17A (human) (UniProt Q9UEE5)
- Sequence (Q9UEE5 whole entry, looked up): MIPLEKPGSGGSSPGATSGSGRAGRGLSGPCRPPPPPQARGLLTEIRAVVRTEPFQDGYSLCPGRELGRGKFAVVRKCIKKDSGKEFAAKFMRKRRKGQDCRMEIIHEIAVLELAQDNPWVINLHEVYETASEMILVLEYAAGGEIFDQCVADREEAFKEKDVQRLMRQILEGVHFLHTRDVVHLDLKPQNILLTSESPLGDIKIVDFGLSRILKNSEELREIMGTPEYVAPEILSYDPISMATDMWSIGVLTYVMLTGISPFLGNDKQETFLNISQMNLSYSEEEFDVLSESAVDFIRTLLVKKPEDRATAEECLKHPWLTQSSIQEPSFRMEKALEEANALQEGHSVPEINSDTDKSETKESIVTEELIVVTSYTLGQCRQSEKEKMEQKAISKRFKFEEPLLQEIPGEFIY
- RUN_DESCRIPTION: KINOMEscan competition binding
- APPLIED_CONDITIONS: compound 10.0 µM
Returns: string. Value is criterion met if measured kinase still bound, per cent of control is below 2%, and criterion not met if it is greater than or equal to it.

These solved cases illustrate the format of a correct answer.
N=C1NC(=O)/C(=C/c2ccc(-c3ccc(Cl)cc3)o2)S1 criterion met
Cc1cn(-c2cc(NC(=O)c3cccc4cc(-c5ccc(/C=C6\SC(=N)NC6=O)o5)ccc34)cc(C(F)(F)F)c2)cn1 criterion not met
O=C1NC(=S)S/C1=C\c1ccc(-c2cncc3ccccc23)o1 criterion met

Confirm or reject: kinase still bound, per cent of control of `CN1C(=N)NC(=O)/C1=C/c1ccc(-c2cccc3ccccc23)o1` lies strictly below 2%
criterion not met

----------
Reported values of IC50 for individual entries
- TEST_TARGET: PIM2 (human) (UniProt Q9P1W9)
- Sequence (Q9P1W9 whole entry, looked up): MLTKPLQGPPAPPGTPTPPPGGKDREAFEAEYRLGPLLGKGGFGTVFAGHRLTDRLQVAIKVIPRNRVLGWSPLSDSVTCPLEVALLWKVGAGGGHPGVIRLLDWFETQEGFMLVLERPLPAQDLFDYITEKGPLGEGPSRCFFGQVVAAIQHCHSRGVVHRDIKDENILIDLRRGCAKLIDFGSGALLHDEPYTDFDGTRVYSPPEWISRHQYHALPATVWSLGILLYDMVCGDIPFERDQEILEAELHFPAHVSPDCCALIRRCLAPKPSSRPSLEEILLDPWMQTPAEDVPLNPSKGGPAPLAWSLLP
Kindly provide the numeric value in nM only, without the unit symbol.

CN(C)C1=NC(=O)/C(=C/c2ccc(-c3ccc(S(N)(=O)=O)cc3)o2)S1 6450

Consider the compound shown here: `N=C1NC(=O)/C(=C/c2ccc(-c3cccc4ccccc34)o2)S1` What is its recorded IC50?
1200

Consider the compound shown here: `CC(=O)Nc1ccc(-c2ccc(/C=C3\SC(=N)NC3=O)o2)c(O)c1` What is its recorded IC50?
298

Consider the compound shown here: `Cc1cn(-c2cc(NC(=O)c3cccc4cc(-c5ccc(/C=C6\SC(=O)NC6=O)o5)ccc34)cc(C(F)(F)F)c2)cn1` What is its recorded IC50?
1430

Consider the compound shown here: `O=C1NC(=O)/C(=C/c2ccc(-c3ccc(C(=O)Nc4ccc(N5CCNCC5)cc4)cc3)o2)S1` What is its recorded IC50?
133

Consider the compound shown here: `O=C1NC(=S)S/C1=C\c1ccc(-c2cncc3ccccc23)o1` What is its recorded IC50?
92

Consider the compound shown here: `NS(=O)(=O)c1ccc(-c2ccc(/C=C3\SC(=O)NC3=O)o2)cc1` What is its recorded IC50?
125

----------
- TEST_TARGET: CAMKK1 (human)
- RUN_DESCRIPTION: KINOMEscan competition binding
- APPLIED_CONDITIONS: compound 10.0 µM
ASSAY_METRIC: kinase still bound, per cent of control (%)
Kindly provide the numeric value in % only, without the unit symbol.

Worked examples follow.
COc1cc(N2CCN(C)CC2)ccc1Nc1ncc2c(n1)N(C)c1ccccc1C(=O)N2 28
N=C1NC(=O)/C(=C/c2ccc(-c3cnc4ccccc4c3)o2)S1 27
N=C1NC(=O)/C(=C/c2ccc(-c3ccc(C(N)=O)cc3O)o2)S1 16

Now for the compound whose kinase still bound, per cent of control we want.
Consider the compound shown here: `N=C1NC(=O)/C(=C/c2ccc(-c3ccccc3O)o2)S1` What is its recorded kinase still bound, per cent of control?
13

----------
- TEST_TARGET: TNK2 (human)
- RUN_DESCRIPTION: KINOMEscan competition binding
- APPLIED_CONDITIONS: compound 10.0 µM
ASSAY_METRIC: kinase still bound, per cent of control (%)
Kindly provide the numeric value in % only, without the unit symbol.

O=C1NC(=S)S/C1=C\c1ccc(-c2cncc3ccccc23)o1 34
COc1cc(N2CCC(O)CC2)ccc1Nc1ncc2c(n1)N1CCc3cccc(c31)C(=O)N2C 23
O=C1NC(=O)/C(=C/c2c[nH]c(=O)c(-c3ccc(N4CCNCC4)nc3)c2)S1 100
CN1C(=O)c2ccccc2N(C)c2nc(Nc3ccc(N4CCC(O)CC4)cc3)ncc21 29
COc1cc(N2CCC(O)CC2)ccc1Nc1ncc2c(n1)N(C)c1ccccc1C(=O)N2C 1.6

Consider the compound shown here: `CN1C(=O)c2ccccc2N(C)c2nc(NS(=O)(=O)c3ccc(N)cc3)ncc21` What is its recorded kinase still bound, per cent of control?
100

Consider the compound shown here: `COc1cc(N2CCN(C)CC2)ccc1Nc1ncc2c(n1)N(C)c1ccccc1C(=O)N2` What is its recorded kinase still bound, per cent of control?
0.3

Consider the compound shown here: `COc1cc(N2CCN(C)CC2)ccc1Nc1ncc2c(n1)N(C(C)C)c1ccccc1C(=O)N2` What is its recorded kinase still bound, per cent of control?
8.4

----------
- TEST_TARGET: PLK4 (human)
- RUN_DESCRIPTION: KINOMEscan competition binding
- APPLIED_CONDITIONS: compound 10.0 µM
Reported values of kinase still bound, per cent of control for individual entries
Kindly provide the numeric value in % only, without the unit symbol.

COMPOUND	kinase still bound, per cent of control / %
COc1cc(N2CCN(C)CC2)ccc1Nc1ncc2c(n1)N(C)c1ccccc1C(=O)N2	8.2
N=C1NC(=O)/C(=C/c2ccc(-c3ccc(F)cc3)o2)S1	21
CS(=O)(=O)Nc1ccc(-c2cc(/C=C3\SC(=N)NC3=O)c[nH]c2=O)cc1	24
COc1cc(N(C)CCCO)ccc1Nc1ncc2c(n1)N(C1CCCC1)CCC(=O)N2C	12
COc1cc(C(N)=O)ccc1-c1ccc(/C=C2\SC(=N)NC2=O)o1	22

Quick check: kinase still bound, per cent of control on PLK4 (human), item `CCN1C(=O)CCN(C2CCCC2)c2nc(Nc3ccc(N4CCC(O)CC4)cn3)ncc21` ?
24

Quick check: kinase still bound, per cent of control on PLK4 (human), item `COc1cc(N2CCN(C)CC2)ccc1Nc1ncc2c(n1)N(C)c1ccccc1C(=O)N2C` ?
6.8

Quick check: kinase still bound, per cent of control on PLK4 (human), item `CS(=O)(=O)Nc1ccc(-c2ncc(/C=C3\SC(=N)NC3=O)s2)cc1` ?
11

Quick check: kinase still bound, per cent of control on PLK4 (human), item `N=C1NC(=O)/C(=C/c2ccc(-c3ccc4c(C(=O)Nc5ccc(N6CCNCC6)cc5)cccc4c3)o2)S1` ?
3.8

Quick check: kinase still bound, per cent of control on PLK4 (human), item `NS(=O)(=O)c1ccc(-c2ccc(/C=C3\SC(=S)N(CC(=O)O)C3=O)o2)cc1` ?
0.35

Quick check: kinase still bound, per cent of control on PLK4 (human), item `N=C1NC(=O)/C(=C/c2ccc(-c3ccc(C(=O)Nc4ccc(N5CCNCC5)cc4)cc3O)o2)S1` ?
23

Quick check: kinase still bound, per cent of control on PLK4 (human), item `CN1C(=O)[C@H]2CCC[C@H]2N(C2CCCC2)c2nc(Nc3ccc4ncccc4c3)ncc21` ?
1.9
